- assayMethodText: Measurement of log P values by HPLC on reversed phase columns (EEC directive 79/831 Annex V.A8; methods [a] pH 2.3, [b] pH 2.7, [c] pH 7.8)
- Assay type: physicochemical
- experimentalConditions: reversed phase HPLC column; acid HPLC method, reversed phase; read-out: Log P acid
observedProperty: chromatographic logP
I'd appreciate a reply containing only the number, no unit.

Report chromatographic logP for COC(c1ccc(Cl)cc1Cl)C1(NC(=O)c2nccnc2Cl)CC1 (stereo not shown) please.
3.24

###

- assayMethodText: Measurement of log P values by HPLC on reversed phase columns (EEC directive 79/831 Annex V.A8; methods [a] pH 2.3, [b] pH 2.7, [c] pH 7.8)
- Type: physicochemical
- experimentalConditions: method [c]: LC-MS at pH 7.8, 0.001 molar ammonium hydrogen carbonate in water / acetonitrile
observedProperty: log P

COC(c1ccc(Cl)cc1)C(C)NC(=O)c1ccccc1F (centres unmarked) [Compound 133]
3.44^[c];

Which log P is reported for this molecule? CCOC(c1ccc(Cl)cc1Cl)C(C)NC(=O)c1ccccc1C (centres unmarked) [Compound 198]
4.33^[c];

Field request: log P | item: COC(c1ccccc1Cl)C(C)NC(=O)c1ccccc1F (centres unmarked) [Compound 147]
3.42^[c];

So what's the measured log P for this one? CCOC(c1ccc(Cl)cc1Cl)C(C)NC(=O)c1ccccc1[N+](=O)[O-] (centres unmarked) [Compound 202]
3.80^[c];

Would you kindly share the measured log P for COC(c1ccc(Cl)cc1Cl)C1(NC(=O)c2ccccc2Cl)CC1 (centres unmarked) [Compound 154] ?
3.71^[c];
